Numbers sourced from patent US20250011438A1.

Documented Kd across a set of binders
Biological target: T1, human Tie2 (hTie2), as immobilised in the Octet assay of Example 1.4 (human, UniProt Q02763 349-738, limits assumed)
T1 construct: The protein used was probably a soluble recombinant form, possibly hTie2-Ig3-FNIII(1-3)
T1 sequence (Q02763 349-738 limits assumed): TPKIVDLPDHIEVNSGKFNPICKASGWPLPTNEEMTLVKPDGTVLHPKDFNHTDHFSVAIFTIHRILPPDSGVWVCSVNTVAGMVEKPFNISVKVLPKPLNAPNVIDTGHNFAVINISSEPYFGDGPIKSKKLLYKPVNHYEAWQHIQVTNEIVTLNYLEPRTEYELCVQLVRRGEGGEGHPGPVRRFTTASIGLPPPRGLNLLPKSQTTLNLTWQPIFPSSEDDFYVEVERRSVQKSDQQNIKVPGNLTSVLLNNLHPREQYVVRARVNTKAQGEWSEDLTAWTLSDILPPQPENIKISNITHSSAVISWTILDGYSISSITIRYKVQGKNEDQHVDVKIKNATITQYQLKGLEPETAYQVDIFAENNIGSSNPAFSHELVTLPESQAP
Assay: BLI (Octet), hTie2 immobilised on AR2G sensor, antibody as analyte, 1:1 global fit
Procedure: The affinity of mouse monoclonal antibody against hTie2 was measured using Octet® system (ForteBio) where Black 96-well plates (96 well F-type black plates, Greiner) were used. […] After the hydration, hTie2 was diluted in 10 mM sodium acetate, pH 6.0 buffer at a concentration of 10 μg/ml, fixed on AR2G biosensor, and blocked with 1M ethanolamine. […]
Numeric only. Scale: nM

Answered cases to consult:
# binder, observed.measurement
records = [
    ("mouse anti-Tie2 antibody 3E12 (antibody, V domains shown) VH: QVQLQQPGADLVRPGASVKLSCKASGYSFTSYWMNWVKQRPGQGLEWIGMIHPSDSETRLNQKFKDKATLTVDKSSSTAYMQLSSPTSEDSAVYYCAKGYYFGYWGQGTTLTVSS VL: DIQMTQSPSSLSASLGERVSLTCRASQDIGISLNWLQQEPDGTIKRLIYATSNLDSGVPKRFSGSRSGSDYSLTISSLESEDFVDYYCLQYASSPPTFGGGTKLEIK", 0.251),
    ("mouse anti-Tie2 antibody 4A4 (antibody, V domains shown) VH: QVQLQQPGAELVRPGASVKLSCKASGYSFTSYWMNWVKQRPGQGLEWIGMIHPSDSETRLNQKFKDKATLTVDKSSSTAYMQLSSPTSEDSAVYYCARGYYFDYWGQGTTLTVSS VL: DIQMTQSPSSLSASLGERVSLTCRASQDIGISLNWLQQEPDGTIKRLIYATSSLDSGVPKRFTGSRSGSDYSLTISSLESEDFVDYYCLQYVSSPWTFGGGTKLEIK", 0.105),
    ("mouse anti-Tie2 antibody 11C4 (antibody, V domains shown) VH: QVQLQQPGADLVRPGASVTLSCKASGYSFTSYWMNWVKQRPGQGLEWIGMIHPSDSETRLNQKFKDKATLTVDKSSSTAYMQLRSPTSEDSAVYYCAGLTIYFDYWGQGTTLTVSS VL: DIQMTQSPSSLSASLGERVSLTCRASQDIGISLNWLQQEPDGTIKRLIYATSSLDSGVPKRFSGSRSGSDYSLTISSLESEDFVDYYCLQYASSPYTFGGGTKLEIK", 0.215),
]

Next:
Problem: I am curious: what Kd value has been reported for mouse anti-Tie2 antibody 3H7 (antibody, V domains shown) VH: QVQLQQPGAELVRPGASVKLSCKASGYSFTSYWMNWVKQRPGQGLEWIGMIHPSDSETRLNQKFMDKATLTVDKSSSTAYMQLSSPTSEDSAVYYCARGLYGNSWGQGTLVTVSA VL: DIQMTQSPSSLSASLGERVSLTCRASQDIGISLNWLQQEPDGTIKRLIYATSSLDSGVPKRFSGSRSGSDYSLTISSLESEDFVDYYCLQYASSPYTFGGGTKLEIK ?
Solution: 0.0556
